Assay Explanation: solvent given as SMILES
Measurement Setup: in O
Assay Readout: solvation free energy, 298 K (kcal/mol)
Numbers only, in kcal/mol.

Oc1ccc(Br)cc1Br    -5.69

# return solvation free energy, 298 K for each item in the list
1. O=[O+][O-]
2. Clc1cc(Cl)c(-c2c(Cl)cccc2Cl)c(Cl)c1

Reply |
[0.82, -1.96]

* * *

Assay Explanation: solvent given as SMILES
Measurement Setup: in O
Assay Readout: solvation free energy, 298 K (kcal/mol)
Numbers only, in kcal/mol.

Worked cases, answers included:
Cc1cncc(C)c1    -4.84
CCCCCCOC(C)=O    -2.29
CCN(CC)CC    -3.22
CC1CCCCC1    1.7
COc1ccc(CCN)cc1    -8.51

# return solvation free energy, 298 K for each item in the list
1. O=C=S
2. CCCOC
3. CCC(=O)CC(C)=O

Reply |
1: 0.41; 2: -1.66; 3: -4.79

# return solvation free energy, 298 K for each item in the list
1. CCCCCCCOC(=O)c1ccccc1C(=O)OCCCCCCC
2. CCc1cccc(O)c1

Reply |
1. -6.68
2. -6.25

# return solvation free energy, 298 K for each item in the list
1. Cc1ccccc1C(=O)N(O)c1ccccc1
2. O=Cc1ccc(C(=O)O)cc1

Reply |
1. -11.5
2. -8.94

# return solvation free energy, 298 K for each item in the list
1. c1ccc(Cn2ccnc2)cc1
2. Cc1cccc(C(=O)O)c1
3. CC(C)(C)Br

Reply |
1. -7.63
2. -6.79
3. 0.85

# return solvation free energy, 298 K for each item in the list
1. Clc1cc(-c2ccccc2)c(Cl)c(Cl)c1Cl
2. Oc1c(Cl)cc(Cl)cc1Cl

Reply |
-3.29
-4.95

# return solvation free energy, 298 K for each item in the list
1. Nc1ccc2ccccc2c1
2. Oc1ccccc1Cl
3. C=CCCl
4. O=C(c1ccccc1)C(O)c1ccccc1 (stereo not given)
5. C=CC(=C)C
6. CCCCCCI
7. C1=CCC=CC1
8. O=[N+]([O-])c1ccccc1O

Reply |
1. -7.47
2. -4.56
3. -0.57
4. -11.9
5. 0.68
6. 0.08
7. -0.67
8. -4.58

# return solvation free energy, 298 K for each item in the list
1. Clc1ccc(Cl)c(-c2ccccc2)c1
2. Cc1ccccc1N

Reply |
1. -2.46
2. -5.55

# return solvation free energy, 298 K for each item in the list
1. CCCCN(CC)N=O
2. C#CC(C)(C)O

Reply |
[-5.25, -5.18]

Data point: Oc1ccc(-c2ccccc2)cc1 ; solvation free energy, 298 K = -8.89

Attribution: the CombiSolv-Exp solvation set (Vermeire and Green 2021)
